Recorded values, source patent US20260167721A1.

Target: T1, recombinant human CD3 epsilon/delta heterodimer (human, UniProt P07766 23-126; P04234 22-105)
T1 construct: Recombinant heterodimer used as analyte in Octet; also called hCD3 E/D; human CD3E/D
T1 sequence (P07766 23-126, stated change not applied, chain 1 of 2): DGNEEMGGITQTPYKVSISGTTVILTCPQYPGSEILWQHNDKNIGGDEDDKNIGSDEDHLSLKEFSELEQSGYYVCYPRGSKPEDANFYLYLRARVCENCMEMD
T1 sequence (P04234 22-105, stated change not applied, chain 2 of 2): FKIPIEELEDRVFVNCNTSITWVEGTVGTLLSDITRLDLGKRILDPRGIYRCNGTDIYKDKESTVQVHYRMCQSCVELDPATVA
Test: BLI (Octet), mAb 5 ug/mL on FAB2G sensor, hCD3 E/D 200-50 nM
Entry flag: 1.0 if koff reaches 0.005 s⁻¹; 0.0 if it does not.

Reference set (3 entries):
ABL-CD3-85 (antibody, V domains shown, mAb purified from hybridoma; chimeric AlivaMab IgG (human VH, CH1 and upper hinge; mouse middle hinge, CH2, CH3; human light chain)) VH: EVQLVESGGGLVKPGGSLRLSCAASGFTFSSYSMNWVRQAPGKGLEWVSSISRRSGYIYYADSVKGRFTLSRDNAKKSLYLQMNSLRAEDTAVYYCARDLNWAFDYWGQGTLVTVSS VL: NFMLTQPHSVSESPGKTVTISCTRSSGSIASNYVQWYQQRPGSSPTTVIYEDNHRPSGVPDRFSGSIDSSSNSASLTIAGLKTEDEADYYCQSCDSSNVVFGGGTKLTVL: 1.0
ABL-CD3-82 (antibody, V domains shown, mAb purified from hybridoma; chimeric AlivaMab IgG (human VH, CH1 and upper hinge; mouse middle hinge, CH2, CH3; human light chain)) VH: EVQLVESGGGLVKPGGSLRLSCAASGFTFSSYSMNWVRQAPGKGLEWVSSISSSSSYIYYADSVKGRFTISRDNAKNSLYLQMNSLRAEDTAVYYCARDRRELLLDYWGQGTLVTVSS VL: SYELTQPPSVSVSPGQTARITCSGDALPKKYAYWYQQKSGQAPVLVIYEDSKRPSGIPERFSGSSSGTMATLTISGAQVEDEADYYCYSTDSSGNHSWVFGGGTKLTVL: 0.0
ABL-CD3-87 (antibody, V domains shown, mAb purified from hybridoma; chimeric AlivaMab IgG (human VH, CH1 and upper hinge; mouse middle hinge, CH2, CH3; human light chain)) VH: EVQLVESGGGLVKFGGSLRLSCAASGFTFSRYSMNWVRQAPGKGLEWVSSISSSSSYKYYADSVKGRFTISRDNAKNSLYLQMNSLRAEDTAVYYCAREGGNSHGMDVWGQGTTVTVSS VL: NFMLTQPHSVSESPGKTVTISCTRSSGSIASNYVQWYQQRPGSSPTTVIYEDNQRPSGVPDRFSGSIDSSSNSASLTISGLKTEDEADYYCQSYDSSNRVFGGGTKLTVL: 1.0

Below: the item to evaluate.
IN: API: above_or_equal(metric=koff, cutoff=0.005 s⁻¹) for item ABL-CD3-64 (antibody, V domains shown, mAb purified from hybridoma; chimeric AlivaMab IgG (human VH, CH1 and upper hinge; mouse middle hinge, CH2, CH3; human light chain)) VH: EVQVAESGGGLVKPGGSLRLSCAASGFTFSRYSMNWVRQAPGKGLEWVSSISSSGSYTYYADSVKGRFTISRDNAKNSLYLQMNSLRAEDTAVYYCVRERGKGAGMDVWGQGTTVTVSS VL: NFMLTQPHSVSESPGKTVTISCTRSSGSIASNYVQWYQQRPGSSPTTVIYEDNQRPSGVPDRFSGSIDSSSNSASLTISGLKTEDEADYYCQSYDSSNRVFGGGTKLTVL
OUT: 1.0
